system: P. falciparum FcB1-Colombia (chloroquine resistant strain); assay: Anti-malarial activity on P. falciparum FcB1-Colombia strain, tritiated hypoxanthine incorporation; type: cell-based, Plasmodium falciparum; conditions: FcB1-Colombia (CQR), 32 hrs; read-out: IC50
IC50 by entry:
Reply with just the number (in nM).

O=C1CCC2(CC1)OOC1(c3ccccc3)CC(c3ccccc3)=CC1O2 (centres unmarked) = 113

Could you now look at the following compound, please?
Entry Clc1ccc2c(NCCNC3CCC4(CC3)OOC3(c5ccccc5)CC(c5ccccc5)=CC3O4)ccnc2c1.O=C(O)CC(O)(CC(=O)O)C(=O)O.O=C(O)CC(O)(CC(=O)O)C(=O)O (centres unmarked) has what IC50?
37
